# key: entry, value: combination Emax
Tested on: HCT-116 (Colorectal Carcinoma)
assayNotes: combination Emax (second highest fraction inhibited in the dose matrix, 72 h); higher = more inhibition; extreme values may be limits of the assay
Write the value as a bare number.

Asked: Name the recorded combination Emax for CS(=O)(=O)CCNCc1ccc(-c2ccc3ncnc(Nc4ccc(OCc5cccc(F)c5)c(Cl)c4)c3c2)o1 [Lapatinib] + NC1(c2ccc(-c3nc4ccn5c(=O)[nH]nc5c4cc3-c3ccccc3)cc2)CCC1 [MK-2206] (first compound max 10 µM, 7x7, partner max 10 µM) .
Given back: 0.891

Asked: Please report the recorded combination Emax for COc1cccc(OCCCN)c1-c1cc(Nc2cnc(C#N)cn2)n[nH]1 [Prexasertib] + Cc1cc2ncnn2cc1Nc1ncc2c(n1)n(C1CCOCC1)c(=O)n2C [AZD7648] (first compound max 1 µM, 7x7, partner max 10 µM) .
Given back: 0.565
